The measured values listed here are drawn from ChEMBL document CHEMBL2346602.

- measurement_description: AUC in Sprague-Dawley rat at 1 mg/kg, iv
- Format: ADME, organism-based
- Set-up: dose 1 mg/kg, route intravenous
- assay_conditions: plasma
result_type: AUC
Answer shape: numeric part, then the unit.

Q: State, in one line, measured AUC of CN[C@@H](C)C(=O)N[C@H]1CCCC[C@H]2CC[C@@H](C(=O)N[C@@H](c3ccccc3)c3cn(CCCCc4ccc(CCCCn5cc([C@@H](NC(=O)[C@@H]6CC[C@@H]7CCCC[C@H](NC(=O)[C@H](C)NC)C(=O)N76)c6ccccc6)nn5)cc4)nn3)N2C1=O
A: 221 ng·h/mL

###

- measurement_description: Elimination half life in Sprague-Dawley rat at […], iv
- Assay type: ADME, organism-based
- Parameters: dose 2.5 mg/kg, route intravenous
- assay_conditions: in vivo, read-out: beta t1/2 (converted)
result_type: half-life (h)
The figure you give is taken to be in h; do not add the unit.

Q: State, in one line, measured half-life of CN[C@@H](C)C(=O)N[C@H]1CN(C(=O)Nc2ccc(NC(=O)N3CC[C@H]4CC[C@@H](C(=O)NC(c5ccccc5)c5ccccc5)N4C(=O)[C@@H](NC(=O)[C@H](C)NC)C3)cc2)CC[C@H]2CC[C@@H](C(=O)NC(c3ccccc3)c3ccccc3)N2C1=O
A: 4.9
